- Tested on: M. mycetomatis genome strain MM55
- experiment.description: CLSI M38-A2 based in vitro susceptibility screening (XTT or resazurin), growth at fixed concentration
- Type: cell-based, Madurella mycetomatis
- condition: Madurella mycetomatis, 100 uM, third replicate column; read-out: Percentage survival at 100um, 100 uM A
Label Fulfilled when activity at 100 µM >= 70%; otherwise Not fulfilled.

Cc1ccc(N2CCC(CCOc3ccc(S(C)(=O)=O)cc3)CC2)nn1 [MMV1634394] : Not fulfilled
COc1ccc(NS(=O)(=O)c2ccc(Cl)s2)cn1 [MMV1580499] : Not fulfilled
COC1CC2CCC(C)C(O)(O2)C(=O)C(=O)N2CCCCC2C(=O)OC(C(C)CC2CCC(OCCO)C(OC)C2)CC(=O)C(C)/C=C(\C)C(O)C(OC)C(=O)C(C)CC(C)/C=C/C=C/C=C/1C (stereo not drawn) [MMV639951] : Not fulfilled
Cc1[nH]c2ccccc2c1CC(=O)N[C@@H](Cc1ccccc1)C(=O)N(C)c1ccccc1 [MMV1580798] : Fulfilled
O=C(c1nc2c(C(F)(F)F)cc(C3CC3)cn2c1Cl)N1CCN([C@H]2CC[C@H](O)CC2)C(=O)C1 [MMV1634396] : Fulfilled
CC#C[C@]1(O)CC[C@H]2[C@@H]3CCC4=CC(=O)CCC4=C3[C@@H](c3ccc(N(C)C)cc3)C[C@@]21C [MMV003297] : Fulfilled

----------
- Test system: M. mycetomatis genome strain MM55
- experiment.description: CLSI M38-A2 based in vitro susceptibility screening (XTT or resazurin), growth at fixed concentration
- Format: cell-based, Madurella mycetomatis
- condition: Madurella mycetomatis, 100 uM, replicate 2; read-out: Percentage survival at 100um, 100 uM A
Reported activity at 100 µM values for a set of compounds
observed.property: activity at 100 µM (%)

COc1c(NC(=O)[C@H]2CC[C@@H](COc3ccc([N+](=O)[O-])cc3)CC2)c(F)cc2c(=O)c(C(=O)O)cn(C3CC3)c12 : 78.7
CC[C@@H](CO)NCCN[C@@H](CC)CO : 79.4
CC1CCc2c(N3CCC(O)CC3)c(F)cc3c(=O)c(C(=O)O)cn1c23 (stereo not shown) : 81.1
Cc1c[nH]c(=O)nc1NCc1ccccc1 : 80.8

----------
Reported activity at 100 µM values for a set of compounds
- Tested on: M. mycetomatis genome strain MM55
- experiment.description: CLSI M38-A2 based in vitro susceptibility screening (XTT or resazurin), growth at fixed concentration
- Type: cell-based, Madurella mycetomatis
- condition: Madurella mycetomatis, 100 uM, replicate 3, MM55; read-out: Percentage survival at 100um, 100 uM A
observed.property: activity at 100 µM (%)

CC1(C)CC(NC(=O)C(=O)Nc2ccc(Cl)cc2)CC(C)(C)N1 : 69
CC(=O)Oc1ccccc1C(=O)Nc1ncc([N+](=O)[O-])s1 : 70.1
O=C(O)C[C@H]1CC[C@H](c2ccc(-c3ccc(Nc4ccc(C(F)(F)F)nc4)cn3)cc2)CC1 : 70.8
Nc1nc2c(Cc3cccnc3)c[nH]c2c(=O)[nH]1 : 71.4

----------
- System: M. mycetomatis genome strain MM55
- experiment.description: CLSI M38-A2 based in vitro susceptibility screening (XTT or resazurin), growth at fixed concentration
- Format: cell-based, Madurella mycetomatis
- condition: Madurella mycetomatis, 25 uM, mean; read-out: Percentage survival at 25um, 25 uM mean
Reported activity at 25 µM values for a set of compounds
observed.property: activity at 25 µM (%)

O=[N+]([O-])/C(Br)=C/c1ccc(Br)o1 : 1.68
O=C(NC(=O)N1CCCc2ccccc21)c1ccc(Cl)cc1Cl : 77.7
Cc1cc(C)n(O)c(=O)c1 : 81.5
O=C(NNC(=S)Nc1ccc(Cl)cc1)c1ccncc1 : 85.9
O=C(CCc1ccc2c(c1)OCO2)NCc1ccc(-c2ccccc2F)cc1 : 78.7
Cc1nc(Nc2ccc(F)cc2)nc(N2CCc3ccccc3C2C)c1C (stereo not drawn) : 63.9
Cc1ccc(Oc2ccccc2-c2csc(NC3=NCCCN3)n2)c(C)c1 : 13.4
CN(C)c1[nH]c(=O)ncc1F : 93
CC(=O)N1CCN(c2ccc(OCC3COC(Cn4ccnc4)(c4ccc(Cl)cc4Cl)O3)cc2)CC1 (stereo not drawn) [MMV637533, Ketoconazole, reference compound] : -0.0796
CC(C)(C)c1cccc(-c2nc3cc(C(=N)N)ccc3[nH]2)c1O : 20.7
CC(Oc1ccc(Cl)cc1Cl)C(=O)NCc1ccc2c(c1)OCO2 (stereo not drawn) : 48.3
CCC(C)n1ncn(-c2ccc(N3CCN(c4ccc(OCC5COC(Cn6cncn6)(c6ccc(Cl)cc6Cl)O5)cc4)CC3)cc2)c1=O (stereo not drawn) [MMV637528, Itraconazole, reference compound] : -1.04

----------
- System: M. mycetomatis genome strain MM55
- experiment.description: CLSI M38-A2 based in vitro susceptibility screening (XTT or resazurin), growth at fixed concentration
- Format: cell-based, Madurella mycetomatis
- condition: Madurella mycetomatis, 100 uM, mean of three, M. mycetomatis MM55; read-out: Percentage survival at 100um, 100 uM mean
observed.property: activity at 100 µM (%)

Cc1nc(-c2ccc(C3N(C)c4ccc(F)cc4C(=O)N3c3ccccc3)s2)cs1 (stereo not drawn) : 79.4
CC1(C)Cc2c(C#N)c(SCCc3ccccc3)nc(N3CCOCC3)c2CO1 : 87.3
NS(=O)(=O)c1ccc(NC(=O)NC(c2ccccc2)c2ccccc2)cc1 : 97
Fc1ccc(-c2nc(-c3c[nH]c4ccc(Br)cc34)[nH]c2-c2ccc(F)cc2)cc1 : 3.84
Clc1cc2nc(C3CCNCC3)n(Cc3ccc(CNCCc4cnc[nH]4)cc3)c2cc1Cl : 66.3
NC(=O)c1ccccc1NC(=O)c1ccc(C(=O)Nc2ccccc2C(N)=O)cc1 : 95.7
CCc1cc(O)c(Oc2cccnc2N)cc1F : 101
O=C(Nc1ccccc1)N(Cc1cc(Br)ccc1O)c1ccc(F)cc1 : 11.5
Cc1c(N)cccc1Cn1ccc(OCCc2cccs2)cc1=O : 78.3
CC(C)/N=c1\cc2n(-c3ccc(Cl)cc3)c3ccccc3nc-2cc1Nc1ccc(Cl)cc1 : 71.4
NC(=O)c1cnc2ccc(S(=O)(=O)c3ccccc3)cc2c1Nc1ccc(O)cc1 : 83.2
OC1O[C@H](CSc2ccc(F)cc2)[C@@H](O)[C@H]1O (stereo partly drawn) : 85.6
CCc1nc2ccccn2c1C(=O)NCc1ccccc1 : 64.3
CC1(C)[C@H](C(=O)O)N2C(=O)C[C@H]2S1(=O)=O : 98.9
O=[N+]([O-])c1ccc2c(CCc3c[nH]c4ccccc34)c[nH]c2c1 : 47.9
COC(=O)Nc1nc2ccccc2[nH]1 : 8.48
C[C@H]1CC[C@@]2(O)C(C)(C)[C@@H]3CC[C@@]2(C)[C@H]1C3 : 84.9
NC(=O)[C@@H]1CC[C@@H]2CN1C(=O)N2OS(=O)(=O)O : 85.1
O=C(NCc1ccccc1Cl)c1cnc2ccccc2n1 : 67.2
CCNC(=O)Nc1cc2c(-c3ccnc(C)c3)ccc(CNC(=O)OC)c2cn1 : 52.4
O=C(Nc1nnc(-c2ccccc2)o1)c1ccc(F)cc1 : 0.7

----------
- Tested on: M. mycetomatis genome strain MM55
- experiment.description: CLSI M38-A2 based in vitro susceptibility screening (XTT or resazurin), growth at fixed concentration
- Assay type: cell-based, Madurella mycetomatis
- condition: Madurella mycetomatis, 100 uM, mean; read-out: Percentage survival at 100um, 100 uM mean
// returns -1 unless activity at 100 µM is strictly below 50%, in which case 1

C[C@@H](c1nc(-c2ccc(C#N)cc2)cs1)[C@](O)(Cn1cncn1)c1ccc(F)cc1F [MMV1634362, Ravuconazole] : 1
CC(=O)N1CCN(c2ccc(OCC3COC(Cn4ccnc4)(c4ccc(Cl)cc4Cl)O3)cc2)CC1 (stereo not drawn) [MMV637533, Ketoconazole, reference compound] : 1
O=C(NC(=O)N1CCCc2ccccc21)c1ccc(Cl)cc1Cl [MMV1782218] : -1
CC(C)(C)c1cccc(-c2nc3cc(C(=N)N)ccc3[nH]2)c1O [MMV1581548] : 1
Oc1cc(-c2cccc3ccccc23)[nH]n1 [MMV422940] : -1
CNCC(=O)OCc1cccnc1N(C)C(=O)OC(C)[n+]1cnn(C[C@](O)(c2cc(F)ccc2F)[C@@H](C)c2nc(-c3ccc(C#N)cc3)cs2)c1 (stereo partly drawn) [MMV1634494, Isavuconazonium, reference compound] : 1
c1ccc(-c2nnc3c4ccccc4c(N4CCNCC4)nn23)cc1 [MMV1581551] : 1
COc1cc(NCc2ccc3nc(N)nc(N)c3c2C)cc(OC)c1OC [MMV1580173] : -1
CCCCSc1nc(N)c2[nH]c(=O)c(=O)n(Cc3ccccc3)c2n1 [MMV1579783] : -1
O=C(NCc1cccc2ccccc12)c1cccs1 [MMV1579845] : 1
O=C(Nc1[nH]c(=O)ncc1F)c1ccccc1 [MMV1782225] : -1
COc1cc(C)c2c(Oc3cccc(C(F)(F)F)c3)c(OC)cc(NC(C)CCCN)c2n1 (stereo not drawn) [MMV000043, Tafenoquine, reference compound] : 1
CCOC(=O)Nc1cc(NC(C)CC(C)CN(CC)CC)c2nc(-c3ccccc3)c(-c3ccccc3)nc2n1 (stereo not drawn) [MMV1633967] : -1
CC(C)c1ccc(COc2cccc(-c3cc([S+](C)[O-])c(C#N)c(=O)[nH]3)c2)cc1 (stereo not drawn) [MMV1582497] : 1
CCCCCCC1c2ccc(O)cc2Oc2cc(O)ccc21 [MMV1593535] : 1
NCC(=O)Nc1ccc(-n2nc(C(F)(F)F)cc2-c2ccc3c(ccc4ccccc43)c2)cc1 [MMV1578560] : 1
O=C(NC(=O)N1CCCc2ccccc21)c1cccc(Cl)c1 [MMV1782351] : -1
CC(C)Oc1cccc(NC(=O)c2ccccc2C(F)(F)F)c1 [MMV1009286] : 1
Cc1cc(NS(=O)(=O)c2ccc(-c3ccc(F)cc3F)cc2)no1 [MMV1782217] : -1
OC(Cn1cncn1)(Cn1cncn1)c1ccc(F)cc1F [MMV002337] : 1
O=[N+]([O-])/C(Br)=C/c1ccc(Br)o1 [MMV1645051] : 1
Cc1cc(Nc2ccc(F)cc2)nc(SCc2nc3ccccc3[nH]2)n1 [MMV1582498] : 1
CCCNc1ccc(S(=O)(=O)Nc2cc(C)on2)cc1 [MMV1782216] : -1
O[C@@](Cn1cnnn1)(c1ccc(F)cc1F)C(F)(F)c1ccc(-c2ccc(OCC(F)(F)F)cc2)cn1 [MMV1634386, Oteseconazole, reference compound] : 1
CCNC(=O)Nc1cc(-c2ccccc2)c(-c2cncc(C(=O)O)c2)cn1 [MMV1593534] : -1
OB1OCc2cc(Cl)ccc21 [MMV1634363] : -1
O=C(NNC(=S)Nc1ccc(Cl)cc1)c1ccncc1 [MMV1782227] : -1
O=C(O)c1ccc(-n2nc(-c3ccccc3O)nc2-c2ccccc2O)cc1 [MMV640014] : -1
Nc1nc(O)ncc1F [MMV004508] : -1
C[C@@H](NC(=O)c1ccccc1-c1ccccc1)B(O)O [MMV1582493] : -1
COc1cc(C2C3=C(CC(C)(C)CC3=O)Nc3ccccc3N2C(C)=O)ccc1OCc1ccccc1 (stereo not drawn) [MMV1634557] : -1
Cc1cc(C2CCCCC2)n(O)c(=O)c1 [MMV002731] : 1
C[C@@H](O)[C@H](N)C(=O)NS(=O)(=O)c1cccc(-c2ccc3[nH]ncc3c2)c1 [MMV1582494] : -1
